- procedure_summary: Effective permeability of the compound in PBS buffer at pH 7.4/EtOH buffer (7:3) incubated for 20 hrs by UV-plate spectroscopy based PAMPA-BBB assay
quantity_measured: Papp at 20 h (×10⁻⁶ cm/s)
// note: answer is a bare numeric in ×10⁻⁶ cm/s

structure_smiles | Papp at 20 h [×10⁻⁶ cm/s]
O=c1cc(OCCCN2CCC(NCc3ccc(F)c(F)c3)CC2)c2ccc(-c3cccnc3)cc2o1 | 9.4

// query Fill in Papp at 20 h for record O=c1cc(OCCCN2CCC(NCc3ccsc3)CC2)c2ccc(-c3cccnc3)cc2o1
// result 15.4

// query Find the measured Papp at 20 h of Nc1c2c(nc3ccccc13)CCCC2 and report it.
// result 8.04

// query Report Papp at 20 h, nothing else, for this compound: O=c1cc(OCCCNC2CCN(Cc3ccccc3)CC2)c2ccc(-c3cccnc3)cc2o1
// result 22.8

----------
- procedure_summary: Selectivity index, ratio of IC50 for inhibition of equine serum BuChE to IC50 for inhibition of electric eel AChE
Each entry below lists one item and its recorded Ratio IC50 value.

These recorded examples may help you get a feel for the data.
structure_smiles | result
O=c1cc(OCCCN2CCC(NCc3ccc(F)cc3)CC2)c2ccc(-c3cccnc3)cc2o1 | > 1.93
O=c1cc(OCCCN2CCC(NCc3ccccc3F)CC2)c2ccc(-c3cccnc3)cc2o1 | > 4.31
Cc1ccc(CNC2CCN(CCCOc3cc(=O)oc4cc(-c5cccnc5)ccc34)CC2)cc1 | 1.15
O=c1cc(OCCCN2CCC(NCc3cccc([N+](=O)[O-])c3)CC2)c2ccc(-c3cccnc3)cc2o1 | > 1.37
O=c1cc(OCCCN2CCC(NCc3ccccc3)CC2)c2ccc(-c3ccncc3)cc2o1 | > 2.97

// query Give the reported Ratio IC50 for this compound. Cc1cccc(CNC2CCN(CCCOc3cc(=O)oc4cc(-c5cccnc5)ccc34)CC2)c1
// result 1.12

// query Fill in Ratio IC50 for record O=c1cc(OCCCNC2CCN(Cc3ccccc3)CC2)c2ccc(-c3ccc(F)nc3)cc2o1
// result > 29

// query Let me know recorded Ratio IC50 for CN(Cc1ccccc1)C1CCN(CCCOc2cc(=O)oc3cc(-c4ccc(F)cc4)ccc23)CC1 , thanks.
// result > 11

----------
# IC50 at 48 h listing for each entry below
- procedure_summary: Cytotoxicity in human HepG2 cells assessed as reduction in cell viability incubated for 48 hrs by MTT assay
- Format: toxicity, cell-based
# unit: µM | format: bare number

Worked set:
structure_smiles | numeric_result
O=c1cc(OCCCN2CCC(NCc3ccsc3)CC2)c2ccc(-c3cccnc3)cc2o1 | 14.1
O=C(Nc1cc(-c2ccc3c(OCCCNC4CCN(Cc5ccccc5)CC4)cc(=O)oc3c2)ccn1)C1CC1 | 3.65
O=c1cc(OCCCNC2CCN(Cc3ccccc3)CC2)c2ccc(-c3ccncc3)cc2o1 | 10.6
COc1cccc(CNC2CCN(CCCOc3cc(=O)oc4cc(-c5cccnc5)ccc34)CC2)c1 | 11.4
Cc1cccc(CNC2CCN(CCCOc3cc(=O)oc4cc(-c5cccnc5)ccc34)CC2)c1 | 13.1
O=c1cc(OCCCN2CCC(NCc3ccccc3)CC2)c2ccc(-c3ccncc3)cc2o1 | 13.9

--- query ---
// query Indicate its recorded IC50 at 48 h; the compound in question is O=c1cc(OCCCN2CCC(NCc3ccccc3F)CC2)c2ccc(-c3cccnc3)cc2o1
// result 15.1

----------
- procedure_summary: Cytotoxicity in human SH-SY5Y cells assessed as reduction in cell viability incubated for 48 hrs by MTT assay
- Assay type: toxicity, cell-based
# key: entry, value: IC50 at 48 h

structure_smiles | IC50 at 48 h
Cc1ccc(CNC2CCN(CCCOc3cc(=O)oc4cc(-c5cccnc5)ccc34)CC2)cc1 | 16.5 µM
O=c1cc(OCCCN2CCC(NCc3cccc(F)c3)CC2)c2ccc(-c3cccnc3)cc2o1 | 14.4 µM
O=c1cc(OCCCN2CCC(NCc3ccccc3)CC2)c2ccc(-c3cccnc3)cc2o1 | > 20 µM
O=c1cc(OCCCN2CCC(NCc3ccc(F)cc3)CC2)c2ccc(-c3cccnc3)cc2o1 | 10.9 µM

// query Answer with reported IC50 at 48 h of O=c1cc(OCCCN2CCC(NCc3ccsc3)CC2)c2ccc(-c3cccnc3)cc2o1
// result 14.2 µM

// query Using the record for Cc1cccc(CNC2CCN(CCCOc3cc(=O)oc4cc(-c5cccnc5)ccc34)CC2)c1 , state its measured IC50 at 48 h.
// result 12 µM

----------
pIC50 tested on Acetylcholinesterase (Electrophorus electricus): recorded values
Sequence (O42275 whole entry): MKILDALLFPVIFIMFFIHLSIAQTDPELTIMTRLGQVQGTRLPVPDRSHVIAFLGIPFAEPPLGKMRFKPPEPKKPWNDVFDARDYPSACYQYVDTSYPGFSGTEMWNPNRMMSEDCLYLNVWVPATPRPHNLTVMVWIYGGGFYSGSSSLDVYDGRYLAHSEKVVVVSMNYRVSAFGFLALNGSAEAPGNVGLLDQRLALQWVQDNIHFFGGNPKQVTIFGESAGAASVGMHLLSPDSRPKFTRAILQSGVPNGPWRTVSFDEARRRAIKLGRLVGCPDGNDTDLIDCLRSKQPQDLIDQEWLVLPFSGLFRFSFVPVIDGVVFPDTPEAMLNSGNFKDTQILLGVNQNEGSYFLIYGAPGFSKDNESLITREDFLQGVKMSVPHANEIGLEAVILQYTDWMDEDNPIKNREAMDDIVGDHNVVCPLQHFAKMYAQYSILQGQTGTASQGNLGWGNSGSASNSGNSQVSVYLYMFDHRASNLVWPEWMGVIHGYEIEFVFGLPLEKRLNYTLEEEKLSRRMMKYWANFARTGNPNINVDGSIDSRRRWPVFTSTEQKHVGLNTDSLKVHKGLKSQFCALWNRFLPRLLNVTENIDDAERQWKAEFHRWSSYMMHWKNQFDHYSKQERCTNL
Answer as the number alone; pIC50 is minus log10 of concentration in mol/L.

// solved cases for pIC50 follow
structure_smiles | pIC50
O=c1cc(OCCCN2CCC(NCc3ccc(F)cc3)CC2)c2ccc(-c3cccnc3)cc2o1 | 4.59
O=c1cc(OCCCN2CCOCC2)c2ccc(-c3cccnc3)cc2o1 | 4.81
O=c1cc(OCCCN2CCC(NCc3cccc(F)c3)CC2)c2ccc(-c3cccnc3)cc2o1 | 5.00
O=c1cc(OCCCN2CCC(NCc3ccccc3)CC2)c2ccc(-c3ccncc3)cc2o1 | 4.77
O=C(Nc1cc(-c2ccc3c(OCCCN4CCC(NCc5ccccc5)CC4)cc(=O)oc3c2)ccn1)C1CC1 | 5.01
O=c1cc(OCCCN2CCC(NCc3ccccc3)CC2)c2ccc(Br)cc2o1 | 4.64

// query Fill in: pIC50 on Acetylcholinesterase (Electrophorus electricus), entry O=c1cc(OCCCNC2CCN(Cc3ccccc3)CC2)c2ccc(-c3ccc(F)nc3)cc2o1
// result 5.76

// query With Acetylcholinesterase (Electrophorus electricus) as the test system, provide measured pIC50 for this compound: CN(Cc1ccccc1)C1CCN(CCCOc2cc(=O)oc3cc(-c4ccc(F)nc4)ccc23)CC1
// result 5.39

// query Quote Acetylcholinesterase (Electrophorus electricus) pIC50 for entry N#Cc1cccc(CNC2CCN(CCCOc3cc(=O)oc4cc(-c5cccnc5)ccc34)CC2)c1 .
// result 5.14

----------
- system_name: Beta-secretase 1 (Homo sapiens)
- Sequence (P56817 whole entry): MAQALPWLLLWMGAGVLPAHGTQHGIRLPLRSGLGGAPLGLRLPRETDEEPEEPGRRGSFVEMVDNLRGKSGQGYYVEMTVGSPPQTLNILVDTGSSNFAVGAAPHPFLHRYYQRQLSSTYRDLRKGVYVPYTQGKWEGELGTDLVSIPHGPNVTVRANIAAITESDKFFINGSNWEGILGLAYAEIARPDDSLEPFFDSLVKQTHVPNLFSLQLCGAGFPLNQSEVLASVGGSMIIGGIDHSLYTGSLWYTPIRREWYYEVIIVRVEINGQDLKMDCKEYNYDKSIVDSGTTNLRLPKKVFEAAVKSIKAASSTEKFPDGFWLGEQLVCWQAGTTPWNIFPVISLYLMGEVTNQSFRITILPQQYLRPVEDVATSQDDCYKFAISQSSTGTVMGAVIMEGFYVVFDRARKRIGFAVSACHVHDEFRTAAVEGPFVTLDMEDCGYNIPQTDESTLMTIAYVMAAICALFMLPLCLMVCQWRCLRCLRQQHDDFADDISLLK
- procedure_summary: Inhibition of BACE1 (unknown origin)
quantity_measured: pIC50
Convention used: pIC50 is expressed as -log10 of the molar concentration.

// query Note pIC50 for the compound shown: CC(C)=CC(O)C/C(C)=C/COc1c2ccoc2cc2oc(=O)ccc12 (stereo unspecified)
// result 4.58

----------
- system_name: UniProtKB O42275
quantity_measured: pIC50
Worth noting: pIC50 values are minus log10 of concentrations stated in mol/L.

Study these solved cases before continuing.
structure_smiles | pIC50
O=c1cc(OCCCNC2CCN(Cc3ccccc3)CC2)c2ccc(-c3ccnc(F)c3)cc2o1 | 5.67
O=c1cc(OCCCN2CCC(NCc3ccc(F)c(F)c3)CC2)c2ccc(-c3cccnc3)cc2o1 | 4.90
O=C(Nc1cc(-c2ccc3c(OCCCNC4CCN(Cc5ccccc5)CC4)cc(=O)oc3c2)ccn1)c1ccccc1 | 4.87
Cc1cccc(CNC2CCN(CCCOc3cc(=O)oc4cc(-c5cccnc5)ccc34)CC2)c1 | 4.78
O=c1cc(OCCCN2CCC(CNCc3ccccc3F)CC2)c2ccc(-c3cccnc3)cc2o1 | 4.97

// query Read off the recorded pIC50 for COc1cccc(CNC2CCN(CCCOc3cc(=O)oc4cc(-c5cccnc5)ccc34)CC2)c1
// result 4.91

// query Tell me its pIC50 given O=c1cc(OCCCNC2CCN(Cc3ccccc3)CC2)c2ccc(-c3ccc(F)cc3)cc2o1 as the entry.
// result 4.46

// query Read the entry O=c1cc(OCCCN2CCC(NCc3ccsc3)CC2)c2ccc(-c3cccnc3)cc2o1 and write its reported pIC50.
// result 5.48

----------
// reported IC50 at 48 h for each item listed
- procedure_summary: Cytotoxicity in human HepG2 cells assessed as reduction in cell viability incubated for 48 hrs by MTT assay
- Format: toxicity, cell-based

structure_smiles | result
N#Cc1cccc(CNC2CCN(CCCOc3cc(=O)oc4cc(-c5cccnc5)ccc34)CC2)c1 | 3.26 µM

// query For the compound Cc1ccc(CNC2CCN(CCCOc3cc(=O)oc4cc(-c5cccnc5)ccc34)CC2)cc1 , report IC50 at 48 h.
// result 9.93 µM

// query Entry O=c1cc(OCCCNC2CCN(Cc3ccccc3)CC2)c2ccc(-c3ccnc(F)c3)cc2o1 needs its IC50 at 48 h filled in; supply it.
// result 5.95 µM

// query Name the recorded IC50 at 48 h of the compound listed here: CN(Cc1ccccc1)C1CCN(CCCOc2cc(=O)oc3cc(-c4ccc(F)cc4)ccc23)CC1
// result 3.37 µM

// query Give me measured IC50 at 48 h, please, for this compound: O=c1cc(OCCCN2CCC(NCc3ccc(F)c(F)c3)CC2)c2ccc(-c3cccnc3)cc2o1
// result 9.72 µM

// query Give a short answer stating reported IC50 at 48 h for CN(Cc1ccccc1)C1CCN(CCCOc2cc(=O)oc3cc(-c4ccc(F)nc4)ccc23)CC1 .
// result 10.4 µM

// query Please indicate IC50 at 48 h recorded for O=c1cc(OCCCN2CCC(NCc3ccccc3)CC2)c2ccc(-c3ccc(F)nc3)cc2o1
// result 8.49 µM
